# Lookup of reported pIC50 keyed by entry
assayTarget: mPGES-1 (Homo sapiens (Human), UniProt O14684)
Sequence (O14684 whole entry): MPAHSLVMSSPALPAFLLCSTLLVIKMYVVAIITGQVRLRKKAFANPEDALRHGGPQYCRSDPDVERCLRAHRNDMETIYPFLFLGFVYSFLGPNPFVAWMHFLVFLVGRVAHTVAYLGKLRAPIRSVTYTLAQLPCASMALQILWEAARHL
assayExplanation: A549 cell-based assay (PGE2 formation, IL-1β stimulated, 50% human serum)
condition: A549 cells, IL-1β 5 ng/ml, read-out: mPGES-1 inhibitory effect in the cell assay, IC50
pIC50: −log10 of the molar value.

{"molecule": "Cn1c(Nc2c(Cl)ccc(CNC(=O)C3(C(F)(F)F)CCCC3)c2Cl)nc2cc(C(=O)Nc3ccc(F)c(Cl)c3)c(OCC(F)F)cc21", "censorSymbol": ">", "pIC50": 9.00}
{"molecule": "Cn1c(Nc2c(Cl)ccc(CNC(=O)C3CC3)c2Cl)nc2cc(C(=O)Nc3ccc(F)c(Cl)c3)c(OCC(F)F)cc21", "censorSymbol": "=", "pIC50": 8.70}
{"molecule": "Cn1c(Nc2c(Cl)ccc(CNC(=O)C(C)(C)C)c2Cl)nc2cc(C(=O)Nc3nc(C(F)(F)F)cs3)c(F)cc21", "censorSymbol": "=", "pIC50": 7.80}
{"molecule": "Cn1c(Nc2c(Cl)ccc(CNC(=O)C3(C(F)(F)F)CCC3)c2Cl)nc2cc(C(=O)NCC(F)(F)F)c(OCC(F)F)cc21", "censorSymbol": ">", "pIC50": 9.00}
{"molecule": "Cn1c(Nc2c(Cl)ccc(CNC(=O)C(C)(O)C(F)(F)F)c2Cl)nc2cc(C(=O)Nc3ccc(F)c(Cl)c3)c(OCC(F)F)cc21 (stereo not drawn)", "censorSymbol": "=", "pIC50": 9.00}
{"molecule": "Cn1c(Nc2c(Cl)ccc(CNC(=O)C(N)C(F)(F)F)c2Cl)nc2cc(C(=O)NCC(F)(F)F)c(OCC(F)F)cc21 (stereo not drawn)", "censorSymbol": "=", "pIC50": 6.66}

###

assayTarget: UniProtKB O14684
assayExplanation: mPGES-1 enzyme assay (HTRF detection of PGE2)
Format: biochemical
condition: recombinant human mPGES-1 microsomes, PGH2 2 μM; read-out: mPGES-1 inhibitory effect in the enzyme assay, IC50
pIC50: −log10 of the molar value.
# Lookup of reported pIC50 keyed by entry

{"molecule": "Cn1c(Nc2c(Cl)ccc(CNC(=O)C(C)(C)C)c2Cl)nc2cc(C(=O)Nc3ccc(Cl)c(F)c3)c(OCC(F)F)cc21", "assayTarget": "UniProtKB O14684", "pIC50": 8.40}
{"molecule": "CCNC(=O)c1cc2nc(Nc3c(Cl)ccc(CNC(=O)C(C)(C)C)c3Cl)n(C)c2cc1OCC(F)F", "assayTarget": "UniProtKB O14684", "pIC50": 8.40}
{"molecule": "CC(NC(=O)c1cc2nc(Nc3c(Cl)ccc(CNC(=O)C(C)(C)C)c3Cl)n(C)c2cc1OCC(F)F)C(F)(F)F (stereo not drawn)", "assayTarget": "UniProtKB O14684", "pIC50": 8.40}
{"molecule": "Cn1c(Nc2c(Cl)ccc(CNC(=O)C(C)(C)C)c2Cl)nc2cc(C(=O)NCCC3CC3)c(OCC(F)F)cc21", "assayTarget": "UniProtKB O14684", "pIC50": 8.52}
{"molecule": "Cn1c(Nc2c(Cl)ccc(CNC(=O)C(C)(C)C)c2Cl)nc2cc(C(=O)Nc3cc(F)cc(Cl)c3)c(F)cc21", "assayTarget": "UniProtKB O14684", "pIC50": 9.00}
{"molecule": "Cn1c(Nc2c(Cl)ccc(CNC(=O)C(C)(C)C)c2Cl)nc2cc(C(=O)Nc3ccc(F)c(Cl)c3)c(OCC(F)F)cc21", "assayTarget": "UniProtKB O14684", "pIC50": 8.40}
{"molecule": "Cc1cc(Cl)cnc1NC(=O)c1cc2nc(Nc3c(Cl)ccc(CNC(=O)C(C)(C)C)c3Cl)n(C)c2cc1OCC(F)F", "assayTarget": "UniProtKB O14684", "pIC50": 8.52}
{"molecule": "Cn1c(Nc2c(Cl)ccc(CNC(=O)C(C)(C)C)c2Cl)nc2cc(C(=O)Nc3ccc(C(F)(F)F)cn3)c(OCC(F)F)cc21", "assayTarget": "UniProtKB O14684", "pIC50": 8.40}
{"molecule": "Cn1c(Nc2c(Cl)ccc(CNC(=O)OC(C)(C)C)c2Cl)nc2cc(C(=O)NCC(F)(F)F)c(OCC(F)F)cc21", "assayTarget": "UniProtKB O14684", "pIC50": 8.30}
{"molecule": "Cn1c(Nc2c(Cl)ccc(CNC(=O)C(C)(C)C)c2Cl)nc2cc(C(=O)NC3CC(F)(F)C3)c(F)cc21", "assayTarget": "UniProtKB O14684", "pIC50": 8.52}
{"molecule": "Cc1ccc(Cl)cc1NC(=O)c1cc2nc(Nc3c(Cl)ccc(CNC(=O)C(C)(C)C)c3Cl)n(C)c2cc1OCC(F)F", "assayTarget": "UniProtKB O14684", "pIC50": 8.52}
{"molecule": "Cn1c(Nc2c(Cl)ccc(CNC(=O)C(C)(C)C)c2Cl)nc2cc(C(=O)Nc3ccc(Cl)cc3Cl)c(OCC(F)F)cc21", "assayTarget": "UniProtKB O14684", "pIC50": 8.52}
{"molecule": "Cn1c(Nc2c(Cl)ccc(CNC(=O)C(C)(C)C)c2F)nc2cc(C(=O)Nc3ccc(F)c(Cl)c3)c(OCC(F)F)cc21", "assayTarget": "UniProtKB O14684", "pIC50": 8.70}
{"molecule": "Cn1c(Nc2c(Cl)ccc(CNC(=O)C(C)(C)C)c2Cl)nc2cc(C(=O)Nc3ccc(F)c(F)c3)c(OCC(F)F)cc21", "assayTarget": "UniProtKB O14684", "pIC50": 8.05}
{"molecule": "Cn1c(Nc2c(Cl)ccc(CNC(=O)C(C)(C)C)c2Cl)nc2cc(C(=O)NCC3CCC3)c(OCC(F)F)cc21", "assayTarget": "UniProtKB O14684", "pIC50": 8.52}
{"molecule": "Cn1c(Nc2c(F)ccc(CNC(=O)C(C)(C)C)c2F)nc2cc(C(=O)N[C@H]3CC[C@H](C(F)(F)F)CC3)c(F)cc21", "assayTarget": "UniProtKB O14684", "pIC50": 8.15}
{"molecule": "CC(C)(C)C(=O)NCc1ccc(Cl)c(Nc2nc3cc(C(=O)Nc4ccc(Br)cc4)c(OCC(F)F)cc3[nH]2)c1Cl", "assayTarget": "UniProtKB O14684", "pIC50": 8.40}
{"molecule": "Cn1c(Nc2c(Cl)ccc(CNC(=O)C(C)(C)C)c2F)nc2cc(C(=O)Nc3ccc(Br)cc3)c(OCC(F)F)cc21", "assayTarget": "UniProtKB O14684", "pIC50": 8.52}
{"molecule": "Cn1c(Nc2c(Cl)ccc(CNC(=O)C(C)(C)C)c2Cl)nc2cc(C(=O)NCc3ccc(F)cc3C(F)(F)F)c(OCC(F)F)cc21", "assayTarget": "UniProtKB O14684", "pIC50": 8.40}
{"molecule": "CC(C)(C)C(=O)NCc1ccc(Cl)c(Nc2nc3cc(C(=O)N[C@H]4CC[C@H](C(F)(F)F)CC4)c(F)c(F)c3[nH]2)c1Cl", "assayTarget": "UniProtKB O14684", "pIC50": 8.70}
{"molecule": "Cn1c(Nc2c(Cl)ccc(CNC(=O)C(C)(C)C)c2Cl)nc2cc(C(=O)Nc3cccc(Cl)c3)c(OCC(F)F)cc21", "assayTarget": "UniProtKB O14684", "pIC50": 8.40}
{"molecule": "Cc1ccc(CNC(=O)C(C)(C)C)c(C)c1Nc1nc2cc(C(=O)Nc3ccc(F)c(Cl)c3)c(OCC(F)F)cc2n1C", "assayTarget": "UniProtKB O14684", "pIC50": 8.70}
{"molecule": "Cn1c(Nc2c(Cl)ccc(CNC(=O)C(C)(C)C)c2Cl)nc2cc(C(=O)Nc3cc(F)cc(Cl)c3)c(OCC(F)F)cc21", "assayTarget": "UniProtKB O14684", "pIC50": 8.40}
{"molecule": "Cn1c(Nc2c(Cl)ccc(CNC(=O)C(C)(C)C)c2Cl)nc2cc(C(=O)NCc3ncccc3C(F)(F)F)c(OCC(F)F)cc21", "assayTarget": "UniProtKB O14684", "pIC50": 8.40}
{"molecule": "Cn1c(Nc2c(F)ccc(CNC(=O)C(C)(C)C)c2F)nc2cc(C(=O)NCC(F)(F)F)c(OCC(F)F)cc21", "assayTarget": "UniProtKB O14684", "pIC50": 8.40}
{"molecule": "Cn1c(Nc2c(F)ccc(CNC(=O)C(C)(C)C)c2F)nc2cc(C(=O)Nc3cccc(F)c3)c(OCC(F)F)cc21", "assayTarget": "UniProtKB O14684", "pIC50": 9.00}
{"molecule": "Cn1c(Nc2c(F)ccc(CNC(=O)C(C)(C)C)c2F)nc2cc(C(=O)Nc3ccc(Br)cc3)c(F)cc21", "assayTarget": "UniProtKB O14684", "pIC50": 8.40}
